B1: PhoQ; a variant is named by its letters at X, in order, P23837 (parent)
chain: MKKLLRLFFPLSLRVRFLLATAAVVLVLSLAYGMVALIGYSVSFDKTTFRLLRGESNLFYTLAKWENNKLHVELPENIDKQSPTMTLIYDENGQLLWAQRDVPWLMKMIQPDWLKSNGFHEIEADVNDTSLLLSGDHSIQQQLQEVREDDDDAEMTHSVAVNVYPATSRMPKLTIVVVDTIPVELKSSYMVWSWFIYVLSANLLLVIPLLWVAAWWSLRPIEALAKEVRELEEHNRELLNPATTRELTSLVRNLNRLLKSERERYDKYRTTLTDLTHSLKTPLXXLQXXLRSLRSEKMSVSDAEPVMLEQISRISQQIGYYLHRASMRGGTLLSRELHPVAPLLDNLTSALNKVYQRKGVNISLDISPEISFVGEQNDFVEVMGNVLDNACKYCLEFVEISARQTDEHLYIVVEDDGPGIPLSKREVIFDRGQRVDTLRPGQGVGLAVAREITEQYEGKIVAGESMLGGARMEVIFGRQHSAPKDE

# Variants of: B1
# protocol: enrichment ratio after two sorts for PhoP signalling (ratio (wild type AVST 3.29)); higher = more functional
# reported_conditions: with PhoP (E. coli)
Whole data set: some 140,000 sequences, median “enrichment ratio after two sorts for PhoP signalling” near 0, cut for the highest 2% near 11. Many of the other results were omitted from the sample, so the highest values are more common in it than they were.
Classify as follows. Reported enrichment ratio greater than or equal to 9: Yes. Reported enrichment ratio below: No.

# variant_name, group
rows = [
    ("SGWY", "No"),
    ("NMSL", "No"),
    ("NVAK", "No"),
    ("TVQY", "Yes"),
    ("TKQI", "Yes"),
    ("YYML", "No"),
    ("METG", "No"),
    ("QTGS", "No"),
    ("TCML", "Yes"),
    ("TQQY", "Yes"),
    ("GQSM", "Yes"),
    ("TQEY", "No"),
    ("ATMF", "Yes"),
    ("LQYA", "No"),
    ("SKLF", "Yes"),
    ("GPQA", "No"),
    ("LAQI", "No"),
    ("CTSF", "No"),
    ("TSLN", "Yes"),
    ("FTML", "Yes"),
    ("ATHF", "No"),
    ("YVFQ", "No"),
    ("FGSI", "No"),
    ("SGYI", "No"),
    ("FPIP", "No"),
    ("KMSL", "No"),
    ("ILKS", "No"),
    ("DMEI", "No"),
    ("NMVN", "No"),
    ("TSWI", "No"),
    ("KCML", "No"),
    ("HFPI", "No"),
    ("KMEI", "No"),
    ("SGDY", "No"),
    ("SKQW", "No"),
    ("TSLS", "Yes"),
    ("HVYR", "No"),
    ("YCML", "Yes"),
    ("KSLT", "No"),
    ("FYFS", "No"),
    ("NHQI", "No"),
    ("CNHC", "No"),
    ("PTQI", "No"),
    ("GAFT", "No"),
    ("ITSF", "No"),
    ("SGNY", "No"),
    ("GTSM", "Yes"),
    ("GTCF", "No"),
    ("QPML", "No"),
    ("GVSM", "No"),
    ("MVPM", "No"),
    ("FFSC", "No"),
    ("ATSM", "Yes"),
    ("EFVE", "No"),
    ("NCEQ", "No"),
    ("DRSF", "No"),
    ("SGGY", "Yes"),
    ("MVWM", "No"),
    ("LPSI", "No"),
    ("KSQY", "No"),
    ("AIMF", "No"),
    ("LQQI", "No"),
    ("TSLA", "Yes"),
    ("QCKR", "No"),
    ("FSLS", "Yes"),
    ("TGSC", "Yes"),
    ("SKVA", "No"),
    ("FQSM", "No"),
    ("KSLA", "No"),
    ("ERPM", "No"),
    ("SGAY", "Yes"),
    ("MVAK", "No"),
    ("GYSM", "No"),
    ("PKWA", "No"),
    ("NEEC", "No"),
    ("FCML", "Yes"),
    ("RAAD", "No"),
    ("YHTC", "No"),
    ("MRSM", "No"),
    ("GVPM", "No"),
    ("IWNV", "No"),
    ("YTML", "No"),
    ("SNQM", "Yes"),
    ("QHIN", "No"),
    ("GGSC", "Yes"),
    ("LTNN", "No"),
    ("TMFV", "No"),
    ("FVSC", "No"),
    ("FSLT", "No"),
]

All values here come from a collection of fitness landscapes (doi:10.1126/science.1257360).
